Assay: activity coefficient (dimensionless); of the first substance listed, at infinite dilution; xn = mol fraction of the nth substance listed
Settings: 348.15 K; 101.33 kPa; Liquid; Chromatography; x1 = 0
// boundary case: activity coefficient equal to 60 maps to false; strictly smaller maps to true

compound	group label
CCCOCCC [dipropyl ether] + C[n+]1ccn(CCCO)c1.N#CN=C=[N-]	false
C1CCCCCC1 [cycloheptane] + C[N+]1(CCCO)CCOCC1.N#C[N-]C#N	false
c1ccncc1 [pyridine] + C[n+]1ccn(CCCO)c1.N#CN=C=[N-]	true
C1CCOC1 [tetrahydrofuran] + C[n+]1ccn(CCCO)c1.N#CN=C=[N-]	true

-- ask Is activity coefficient strictly under 60 for the entry CCCCCCCC [octane] + C[n+]1ccn(CCCO)c1.N#CN=C=[N-] ?
-- reply false

-- ask Is activity coefficient strictly under 60 for the entry CCO [ethanol] + C[n+]1ccn(CCCO)c1.N#CN=C=[N-] ?
-- reply true

-- ask Is activity coefficient strictly under 60 for the entry CCCC(=O)OC [methyl butanoate] + C[N+]1(CCCO)CCOCC1.N#C[N-]C#N ?
-- reply true

-- ask Is activity coefficient strictly under 60 for the entry C1CCCCC1 [cyclohexane] + C[N+]1(CCCO)CCOCC1.N#C[N-]C#N ?
-- reply false

-- ask Is activity coefficient strictly under 60 for the entry C1CCOC1 [tetrahydrofuran] + C[N+]1(CCCO)CCOCC1.N#C[N-]C#N ?
-- reply true

-- ask Is activity coefficient strictly under 60 for the entry CCOC(C)(C)C [2-ethoxy-2-methylpropane] + C[n+]1ccn(CCCO)c1.N#CN=C=[N-] ?
-- reply false

====

Record form. Attribute: activity coefficient. Fill in for each entry.
Experiment: activity coefficient (dimensionless); of the first substance listed, at infinite dilution; xn = mol fraction of the nth substance listed
Conditions: 348.15 K; 101.33 kPa; Liquid; Chromatography; x1 = 0

See these solved cases before continuing.
molecule	measurement
C1CCCCC1 [cyclohexane] + C[n+]1ccn(CCCO)c1.N#CN=C=[N-]	80.4
CC(C)c1ccccc1 [isopropylbenzene] + C[N+]1(CCCO)CCOCC1.N#C[N-]C#N	49.2
C=C(C)c1ccccc1 [(1-methylethenyl)benzene] + C[n+]1ccn(CCCO)c1.N#CN=C=[N-]	12.1
CC#N [acetonitrile] + C[n+]1ccn(CCCO)c1.N#CN=C=[N-]	1.33

Could you now consider this next molecule?
-- ask Look at this molecule and give its reported activity coefficient. c1ccsc1 [thiophene] + C[n+]1ccn(CCCO)c1.N#CN=C=[N-]
-- reply 2.82

====

Assay: activity coefficient (dimensionless); of the first substance listed, at infinite dilution; xn = mol fraction of the nth substance listed
Conditions: 368.15 K; 101.33 kPa; Liquid; Chromatography; x1 = 0
measured property: activity coefficient

See these solved cases before continuing.
molecule	measurement
COC(C)(C)C [2-methoxy-2-methylpropane] + C[n+]1ccn(CCCO)c1.N#CN=C=[N-]	24.7
CC(C)O [propan-2-ol] + C[n+]1ccn(CCCO)c1.N#CN=C=[N-]	1.92
Cc1ccc(C)cc1 [1,4-dimethylbenzene] + C[N+]1(CCCO)CCOCC1.N#C[N-]C#N	24.1

Each molecule below has a recorded value; state its activity coefficient.
1. COC(C)=O [methyl ethanoate] + C[N+]1(CCCO)CCOCC1.N#C[N-]C#N
2. C#CCCCCCC [1-octyne] + C[N+]1(CCCO)CCOCC1.N#C[N-]C#N
3. Cc1cccc(C)c1 [1,3-dimethylbenzene] + C[N+]1(CCCO)CCOCC1.N#C[N-]C#N
4. CC#N [acetonitrile] + C[n+]1ccn(CCCO)c1.N#CN=C=[N-]

-- reply
1. 4.89
2. 118
3. 24.5
4. 1.41

Each molecule below has a recorded value; state its activity coefficient.
1. CO [methanol] + C[N+]1(CCCO)CCOCC1.N#C[N-]C#N
2. CCOC(C)(C)C [2-ethoxy-2-methylpropane] + C[n+]1ccn(CCCO)c1.N#CN=C=[N-]
3. CC(C)(C)O [2-methylpropan-2-ol] + C[N+]1(CCCO)CCOCC1.N#C[N-]C#N
4. CC#N [acetonitrile] + C[N+]1(CCCO)CCOCC1.N#C[N-]C#N
5. Cc1ccccc1C [1,2-dimethylbenzene] + C[N+]1(CCCO)CCOCC1.N#C[N-]C#N
6. CCCOCCC [dipropyl ether] + C[n+]1ccn(CCCO)c1.N#CN=C=[N-]
7. CCCCO [butan-1-ol] + C[N+]1(CCCO)CCOCC1.N#C[N-]C#N
8. c1ccsc1 [thiophene] + C[N+]1(CCCO)CCOCC1.N#C[N-]C#N

-- reply
[0.791, 70.5, 4.09, 1.45, 19.5, 72.5, 4.08, 3.9]
